Data provenance is PubChem BioAssay AID1963977.

viability, T/C by entry:
# Test system: 624824-186-R-J3-PDC multicell spheroids, viability;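 note: luminescent signal used as a stand-in for spheroid viability; spheroids exposed to agents for seven days before luminescence read; percent viability relative to DMSO vehicle control wells taken as 100%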
# experimental_protocol: Anticancer human tumor 624824-186-R-J3-PDC patient-derived colon adenocarcinoma cell line growth inhibition [PI3K]
# condition_label: second compound 0.1 µM; first compound 10 µM; stronger effect = lower value
recorded_endpoint: viability, T/C (%)

molecule	target_entity	recorded_endpoint	observed
CC(C)NCC(C(=O)N1CCN(c2ncnc3c2C(C)CC3O)CC1)c1ccc(Cl)cc1 (stereo not drawn) + CC(Nc1ncnc2nc[nH]c12)c1cc2cccc(Cl)c2c(=O)n1-c1ccccc1	624824-186-R-J3-PDC multicell spheroids, viability	viability, T/C	56.2
CC1(C)CCC(Nc2ncc(C(F)(F)F)c(-c3c[nH]c4c(P(C)(C)=O)c(C#N)ccc34)n2)CN1 (stereo not drawn) + CC(Nc1ccc2c(c1)OCCn1cc(N3C(=O)OCC3C(F)F)nc1-2)C(N)=O	624824-186-R-J3-PDC multicell spheroids, viability	viability, T/C	2.82
C[C@@H](NC(=O)c1ncnc(N)c1Cl)c1ncc(C(=O)Nc2cc(C(F)(F)F)c(Cl)cn2)s1 + Cc1nc(NC(=O)N2CCCC2C(N)=O)sc1-c1ccnc(C(C)(C)C(F)(F)F)c1	624824-186-R-J3-PDC multicell spheroids, viability	viability, T/C	91
